Each recorded value in this set is attributed to patent US20210246166A1.

Biological target: T1, recombinant human MASP1 active protease (amino acids 297-699, C-terminal His Tag) (human, UniProt P48740 297-699)
T1 sequence: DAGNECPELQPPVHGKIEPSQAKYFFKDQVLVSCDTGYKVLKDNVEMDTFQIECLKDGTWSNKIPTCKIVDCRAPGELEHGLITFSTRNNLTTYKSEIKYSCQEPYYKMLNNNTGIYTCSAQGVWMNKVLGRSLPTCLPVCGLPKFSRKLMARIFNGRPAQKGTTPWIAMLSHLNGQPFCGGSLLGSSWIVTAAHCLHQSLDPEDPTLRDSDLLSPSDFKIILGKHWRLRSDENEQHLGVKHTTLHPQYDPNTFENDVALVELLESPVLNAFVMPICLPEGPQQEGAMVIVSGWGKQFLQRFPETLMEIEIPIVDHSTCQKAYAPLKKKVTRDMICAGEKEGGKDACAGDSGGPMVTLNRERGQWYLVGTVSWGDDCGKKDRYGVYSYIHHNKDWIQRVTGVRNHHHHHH
Assay: cell-based or functional assay
Bridge positions count the residues as written; N and C are the ends. Square brackets hold non-standard residues; d marks the D form. Ends that are not written are not given here. Oic = O=C(O)[C@@H]1C[C@@H]2CCCC[C@@H]2N1; Pen = CC(C)(S)[C@H](N)C(=O)O
quantity.name: human MASP1 IC50 (nM)
Express your answer in nM, writing the number without its unit.

Sure, the documented human MASP1 IC50 for AICSRSLP[Oic]I[Pen]IPD-NH2 (disulfide 3-11; also: TFA salt) [AIC+SRSLP-(Oic)-I-(Pen)+IPD-NH2] is 2.23

Sure, the documented human MASP1 IC50 for AICSRSLP[Oic]I[Pen]IPQ-NH2 (disulfide 3-11; N-terminus assumed; SMILES CC[C@H](C)[C@H](NC(=O)[C@H](C)N)C(=O)N[C@H]1CSSC(C)(C)[C@@H](C(=O)N[C@H](C(=O)N2CCC[C@H]2C(=O)N[C@@H](CCC(N)=O)C(N)=O)[C@@H](C)CC)NC(=O)[C@H]([C@@H](C)CC)NC(=O)[C@@H]2C[C@@H]3CCCC[C@@H]3N2C(=O)[C@@H]2CCCN2C(=O)[C@H](CC(C)C)NC(=O)[C@H](CO)NC(=O)[C@H](CCCNC(=N)N)NC(=O)[C@H](CO)NC1=O) [AIC+SRSLP-(Oic)-I-(Pen)+IPQ-NH2] is 3.3
